// data source = patent US20160002318A1

- Measured On: HA of influenza B virus B/Harbin/7/1994 (live virus) (influenza B virus B/Harbin/7/1994)
- Assay: cell-based or functional assay
Measured Quantity: HI titers (µg/mL)
Numbers only, in µg/mL.

{"columns": ["Binder", "Quantity Unit", "HI titers"],
 "data": [
  ["CR10023 (antibody, V domains shown) VH: EVQLVETGGGLVQPGRSLRLSCAASGFTFDDYAMHWVRQAPGKGLEWVSGINWVSTTMGYADSVKGRFTISRDNAKNSLYLQMNSLRAEDTALYYCAKDRLESAAIDILEGGTFDIRGQGTMVTVSS VL: QSALTQPPSASGSPGQSVTISCTGTSSDVGGYNYVSWYQQHPGKAPKLMIYDVSKRPSGVPDRFSGSKSGNTASLTISGLQAEDEAEYYCSSYASGSTYVFGTGTKVTVL", "µg/mL", 1.1]
]}

Now take the following binder into account.
Can you look up the measured HI titers of CR8033 (antibody, V domains shown) VH: EVQLVETGGGLVQPGRSLRLSCAASGFSFDEYTMHWVRQAPGKGLEWVAGINWKGNFMGYADSVQGRFTISRDNGKNSLYLQMNSLRAEDTALYYCAKDRLESSAMDILEGGTFDIWGQGTMVT VL: EIVLTQSPGTLSLSPGERATLSCRASQSVSSSYLAWYQQKPGQAPRLLIYGASTRATGIPARFSGSGSGTDFTLTISRLEPEDLAVYYCQQYGSSPWTFGQGTKVEIK for me?
0.39
